Below, Ki values reported for UniProt:P14416 across several publications.

[
  {
    "smiles": "Cc1cccc(N2CCN(CCCCNC(=O)c3ccc4ccccc4n3)CC2)c1",
    "Ki": "> 1 µM"
  },
  {
    "smiles": "O=C(NCCCCN1CCN(c2cnc3ccccc3c2)CC1)c1cc2ccccc2cn1",
    "Ki": "> 1 µM"
  },
  {
    "smiles": "C[C@@H]1C=C(C2=Nc3cc(Cl)ccc3Nc3ccccc32)CCN1C",
    "Ki": "> 1.4 µM"
  },
  {
    "smiles": "Cc1c(-c2ccccc2)cnn1C1CCN(Cc2cccc(C#N)c2)CC1",
    "Ki": "> 1.7 µM"
  }
]

* * *

Below, pKi values reported for UniProt P14416 across several publications.
pKi: −log10 of the molar value.
recorded_metric: pKi

[
  {
    "compound": "COc1ccccc1N1CCN(CCCCNC(=O)c2ccc3c(c2)OCO3)CC1",
    "qualifier_sign": "=",
    "value_measured": 7.06
  },
  {
    "compound": "COc1ccccc1N1CCN(CCN2CCN(c3ncccc3C#N)CC2)CC1",
    "qualifier_sign": "=",
    "value_measured": 6.89
  },
  {
    "compound": "COc1ccccc1N1CCN(CCCCNC2=CC=CC3=[N+]4[N+](=Cc5c(C)cc(C)n5[B-]4(F)F)[B-](F)(F)N23)CC1",
    "qualifier_sign": "=",
    "value_measured": 7.09
  },
  {
    "compound": "CCc1cc(Cl)c(OC)c(C(=O)NC[C@@H]2C[C@@H](OCCCCOc3ccc4c(c3)NC(=O)CC4)CN2)c1O",
    "qualifier_sign": "=",
    "value_measured": 8.75
  },
  {
    "compound": "Fc1ccccc1N1CCN(CCCCNc2ccc(-c3ccccc3)cn2)CC1",
    "qualifier_sign": "=",
    "value_measured": 6.91
  },
  {
    "compound": "CCCN(CCN1CCN(c2ccccc2)CC1)C1CCc2cc(O)ccc2C1 (centres undefined)",
    "qualifier_sign": "=",
    "value_measured": 6.19
  },
  {
    "compound": "CC(=O)NC1CCc2cc(CCN3CCN(c4nsc5ccccc45)CC3)ccc21 (centres undefined)",
    "qualifier_sign": "=",
    "value_measured": 7.82
  },
  {
    "compound": "CCCN1CCO[C@H]2c3cc4c(cc3CC[C@H]21)CCO4",
    "qualifier_sign": "<",
    "value_measured": 5.00
  },
  {
    "compound": "COc1ccccc1N1CCN(CCCCCCNC(=O)c2ccc3ccccc3c2)CC1",
    "qualifier_sign": "=",
    "value_measured": 6.92
  },
  {
    "compound": "COc1ccccc1N1CCN(CCCNS(=O)(=O)c2ccc3ccccc3c2)CC1",
    "qualifier_sign": "=",
    "value_measured": 6.88
  },
  {
    "compound": "CN1CCN(c2nc(N)nc(CS(=O)(=O)c3ccccc3Cl)n2)CC1",
    "qualifier_sign": "=",
    "value_measured": 4.30
  },
  {
    "compound": "c1ccc(CCC2CCN(Cc3cc4ccc[nH]c-4n3)CC2)cc1",
    "qualifier_sign": "=",
    "value_measured": 6.70
  },
  {
    "compound": "c1ccc(-c2cc(CCCCN3CCN(c4ccccc4)CC3)on2)cc1",
    "qualifier_sign": "=",
    "value_measured": 5.47
  },
  {
    "compound": "O=S(=O)(N[C@@H]1CCN(CCOc2ccccc2-c2ccccc2)C1)c1ccc(F)cc1",
    "qualifier_sign": "=",
    "value_measured": 7.80
  },
  {
    "compound": "Cc1cc(OCc2nc(N)nc(N3CCN(C)CC3)n2)ccc1Cl",
    "qualifier_sign": "=",
    "value_measured": 5.91
  },
  {
    "compound": "CC1(c2ccc(Cl)cc2)CCN(Cc2c[nH]c3ccccc23)CC1",
    "qualifier_sign": "=",
    "value_measured": 6.00
  },
  {
    "compound": "COc1ccccc1N1CCN(CCCCCc2cn(-c3ccccc3OC)nn2)CC1",
    "qualifier_sign": "=",
    "value_measured": 7.20
  },
  {
    "compound": "CCc1cc(Cl)c(OC)c(C(=O)NC[C@@H]2CCCN2CCCCNC(=O)c2cc3ccccc3[nH]2)c1O",
    "qualifier_sign": "=",
    "value_measured": 6.76
  },
  {
    "compound": "COc1ccccc1N1CCN(CCCCCc2cn(-c3ccc(-c4ccsc4)cc3)nn2)CC1",
    "qualifier_sign": "=",
    "value_measured": 6.96
  },
  {
    "compound": "COc1ccccc1N1CCN(CCCCCC(=O)NCc2ccncc2)CC1",
    "qualifier_sign": "=",
    "value_measured": 6.30
  },
  {
    "compound": "CCCN(CCC)C1COc2c(cccc2-c2ccccc2OC)C1 (centres undefined)",
    "qualifier_sign": "<",
    "value_measured": 6.00
  },
  {
    "compound": "CCCN1CCO[C@@H]2c3cc4c(cc3CC[C@H]21)CCNC4=O",
    "qualifier_sign": "=",
    "value_measured": 6.11
  },
  {
    "compound": "Cc1cccc(N2CCN(CCCCNC(=O)c3cc4ccccc4cn3)CC2)c1",
    "qualifier_sign": "=",
    "value_measured": 6.54
  },
  {
    "compound": "O=C1COc2ccccc2N1CCCN1CCC(n2c(=O)[nH]c3cccc(F)c32)CC1",
    "qualifier_sign": "=",
    "value_measured": 7.39
  }
]

* * *

pKi: −log10 of the molar value.
Below, pKi values reported for D(2) dopamine receptor (Homo sapiens) across several publications.
recorded_metric: pKi

[
  {
    "compound": "O=S1(=O)c2cccc3cccc(c23)N1CCCCCCN1CCN(c2cccc(C(F)(F)F)c2)CC1",
    "recorded_metric": "pKi",
    "value_measured": 6.52
  },
  {
    "compound": "Cc1c(-c2ccccc2)cnn1C1CCN(Cc2ccccc2)CC1",
    "recorded_metric": "pKi",
    "value_measured": 6.85
  },
  {
    "compound": "O=C(NCCCCN1CCN(c2cnc3ccccc3c2)CC1)c1ccccc1",
    "recorded_metric": "pKi",
    "value_measured": 9.00
  },
  {
    "compound": "Cc1ccc2c(c1)N=C(C1=C[C@H](C)N(C)CC1)c1cc(OC(F)(F)F)ccc1N2",
    "recorded_metric": "pKi",
    "value_measured": 5.91
  },
  {
    "compound": "CCCN(CCN1CCN(c2ccccc2)CC1)C1CCc2ccc(O)cc2C1 (stereo not given)",
    "recorded_metric": "pKi",
    "value_measured": 6.85
  },
  {
    "compound": "Clc1cccc(N2CCN(CCCCNc3ccc4ccccc4n3)CC2)c1Cl",
    "recorded_metric": "pKi",
    "value_measured": 7.64
  },
  {
    "compound": "Fc1ccc2c(C3CCN(CCCOc4ccc(CN5CCOCC5)cc4F)CC3)noc2c1",
    "recorded_metric": "pKi",
    "value_measured": 8.72
  },
  {
    "compound": "O=C(NCCCCN1CCc2ncsc2CC1)C12CC3CC(CC(C3)C1)C2",
    "recorded_metric": "pKi",
    "value_measured": 5.26
  },
  {
    "compound": "COc1ccc2[nH]c(C(=O)NCCC(O)CN3CCN(c4cccc(Cl)c4Cl)CC3)cc2c1 (stereo not given)",
    "recorded_metric": "pKi",
    "value_measured": 6.66
  },
  {
    "compound": "N#Cc1ccc2c(c1)CCN(CC[C@H]1CC[C@H](NC(=O)/C=C/c3ccc(F)cc3)CC1)CC2",
    "recorded_metric": "pKi",
    "value_measured": 6.40
  },
  {
    "compound": "COc1ccccc1N1CCN(CCCCCc2cn(-c3ccc(SC)cc3)nn2)CC1",
    "recorded_metric": "pKi",
    "value_measured": 7.58
  },
  {
    "compound": "COc1ccccc1N1CCN(CCCCCN2C(=O)c3ccccc3S2(=O)=O)CC1",
    "recorded_metric": "pKi",
    "value_measured": 7.70
  },
  {
    "compound": "COc1ccc2c(c1)CCCN(C)CCCc1ccccc1C2",
    "recorded_metric": "pKi",
    "value_measured": 6.76
  },
  {
    "compound": "CCCCNC(=O)c1ccc2c(c1)[C@H]1OCCN(CCC)[C@@H]1CC2",
    "recorded_metric": "pKi",
    "value_measured": 5.34
  },
  {
    "compound": "CCCCN(CCc1ccccc1)CCc1cccc(O)c1",
    "recorded_metric": "pKi",
    "value_measured": 5.91
  }
]
